- assay comment: Inhibition of HCV genotype 1a replicons NS5A infected in human Huh7 cells by luciferase reporter gene assay
measurement label: EC50 (nM)

compound structure string	EC50 (nM)
COC(=O)N[C@H](NC(=O)N1CCC[C@H]1c1nc2ccc(-c3ccc4cc(-c5cnc([C@@H]6CCCN6C(=O)[C@@H](NC(=O)OC)C(C)C)[nH]5)ccc4c3)cc2[nH]1)C1CCOCC1	0.05

P = COC(=O)N[C@H](NC(=O)N1CCC[C@H]1c1nc2ccc(-c3ccc4cc(-c5cnc([C@@H]6CCCN6C(=O)[C@@H](NC(=O)OC)C6CCOCC6)[nH]5)ccc4c3)cc2[nH]1)C(C)C
Q = COC(=O)N[C@H](NC(=O)N1CCC[C@H]1c1nc2ccc(-c3ccc4cc(-c5cnc([C@@H]6CCCN6C(=O)[C@H](NC(=O)OC)c6ccccc6)[nH]5)ccc4c3)cc2[nH]1)C(C)C
// task: argmin of EC50 over [ P , Q ] Your answer should be the label of the entry you select.
P
(P: 0.08 nM, Q: 0.22 nM)

1 = CC[C@@H](C)[C@H](NC(=O)OC)NC(=O)N1CCC[C@H]1c1nc2ccc(-c3ccc4cc(-c5cnc([C@@H]6CCCN6C(=O)[C@@H](NC(=O)OC)[C@H](C)CC)[nH]5)ccc4c3)cc2[nH]1
2 = COC(=O)N[C@H](NC(=O)N1CCC[C@H]1c1nc2ccc(-c3ccc4cc(-c5cnc([C@@H]6CCCN6C(=O)[C@@H](NC(=O)OC)[C@@H](C)OC)[nH]5)ccc4c3)cc2[nH]1)C(C)C
3 = COC(=O)N[C@H](NC(=O)N1CCC[C@H]1c1nc2ccc(-c3ccc4cc(-c5cnc([C@@H]6CCCN6C(=O)[C@@H](NC(=O)OC)C(C)C)[nH]5)ccc4n3)cc2[nH]1)C(C)C
4 = CC[C@H](C)[C@H](NC(=O)OC)NC(=O)N1CCC[C@H]1c1nc2ccc(-c3ccc4cc(-c5cnc([C@@H]6CCCN6C(=O)[C@@H](NC(=O)OC)[C@@H](C)OC)[nH]5)ccc4c3)cc2[nH]1
Please rank these compounds by EC50 in descending order. Answer with the labels in sequence, matching the requested order.
1, 3, 2, 4

All values here come from BindingDB's records for doi:10.1016/j.bmcl.2016.07.066.
